test system: wheat (Triticum aestivum); test: Post-emerge test, crop damage wheat; assay type: in vivo; settings: post-emerge, 250 g ai/ha, 14 days after application, rating scale 0-100 (0 no damage, 100 complete death)
For each record, write down the corresponding Post-emerge crop damage WHEAT (phytotoxicity rating).
One number for each entry.

Before answering, review these 5 worked examples.
CC(C)C1C(=O)Nc2c3c(cc(F)c2-n2c(=O)cc(C(F)(F)F)n(C)c2=O)OCC(=O)N31 (stereo not shown) : 0
Cn1nc(-c2c(F)cc3c4c2NC(=O)C(c2ccccc2)N4C(=O)CO3)c(Cl)c1C(F)(F)F (stereo not shown) : 45
CC1Oc2cc(F)c(-c3nn(C)c(C(F)(F)F)c3Cl)c3c2N(C1=O)C(C)C(=O)N3 (mixture of isomers) [1-50] : 35
Cn1nc(-c2c(F)cc3c4c2NC(=O)C(c2ccccc2)N4C(=O)CO3)c(Cl)c1OC(F)F (stereo not shown) : 65
Cn1c(C(F)(F)F)cc(=O)n(-c2c(F)cc3c4c2NC(=O)CN4C(=O)CO3)c1=O : 25

Could you report Post-emerge crop damage WHEAT (phytotoxicity rating) for every entry in the following list?
1. Cn1nc(-c2c(F)cc3c4c2NC(=O)C(C)(C)N4C(=O)CO3)c(Cl)c1OC(F)F
2. Cn1nc(-c2c(F)cc3c4c2NC(=O)CN4C(=O)C(C)(C)O3)c(Cl)c1OC(F)F

Result:
1. 75
2. 35

---

system: barnyardgrass (Echinachloa crus-galli, ECC); assay: Post-emerge test, barnyardgrass; type: in vivo; settings: 250 g ai/ha, 14 days after application, rating scale 0-100 (0 no damage, 100 complete death)
For each record, write down the corresponding Post-emerge Herbicidal Activity ECC (phytotoxicity rating).
Give bare numbers.

Cn1nc(-c2c(F)cc3c4c2NC(=O)CN4C(=O)CO3)c(Cl)c1OC(F)F : 95
C[C@H]1Oc2cc(F)c(-c3nn(C)c(OC(F)F)c3Cl)c3c2N(CC(=O)N3)C1=O : 95
Cn1nc(-c2c(F)cc3c4c2NC(=O)C(C)(C)N4C(=O)CO3)c(Cl)c1OC(F)F : 100
CC1Oc2cc(F)c(-c3nn(C)c(C(F)(F)F)c3Cl)c3c2N(C1=O)C(C)C(=O)N3 (mixture of isomers) [1-51] : 100

response.value for Cc1nn(-c2c(F)cc3c4c2NC(=O)CN4C(=O)CO3)c(=O)n1C(F)F (field: Post-emerge Herbicidal Activity ECC (phytotoxicity rating)) = 0

---

tested on: upland rice (Oryza sp., var.Tebonnet, RICE); test: Pre-emerge test, crop damage upland rice; format: in vivo; conditions: pre-emerge, 250 g ai/ha, 14 days after application, rating scale 0-100 (0 no damage, 100 complete death)
For each record, write down the corresponding Pre-emerge crop damage RICE (phytotoxicity rating).
One number for each entry.

Cn1c(C(F)(F)F)cc(=O)n(-c2c(F)cc3c4c2NC(=O)CN4C(=O)CO3)c1=O : 100

Could you report Pre-emerge crop damage RICE (phytotoxicity rating) for every entry in the following list?
1. CC(C)C1C(=O)Nc2c(N3C(=O)C4=C(CCCC4)C3=O)c(F)cc3c2N1C(=O)CO3 (centres unmarked)
2. CCC1C(=O)Nc2c(-c3nn(C)c(OC(F)F)c3Cl)c(F)cc3c2N1C(=O)CO3 (centres unmarked)
3. O=C1Nc2c(-c3ncc(C(F)(F)F)cc3Cl)c(F)cc3c2N(C(=O)CO3)C1c1ccccc1 (centres unmarked)
4. CC1Oc2cc(F)c(-c3nn(C)c(C(F)(F)F)c3Cl)c3c2N(C1=O)C(C)C(=O)N3 (mixture of isomers) [1-50]

Result:
1: 0; 2: 75; 3: 0; 4: 50

Could you report Pre-emerge crop damage RICE (phytotoxicity rating) for every entry in the following list?
1. C[C@@H]1Oc2cc(F)c(-c3nn(C)c(C(F)(F)F)c3Cl)c3c2N(CC(=O)N3)C1=O
2. CC1C(=O)Nc2c(-c3nn(C)c(C(F)(F)F)c3Cl)c(F)cc3c2N1C(=O)C(C)(C)O3 (centres unmarked)
3. Cc1nn(-c2c(F)cc3c4c2NC(=O)CN4C(=O)CO3)c(=O)n1C(F)F

Result:
1. 70
2. 0
3. 100

// data source = patent US6770596B1
